Data origin, for the record: ChEMBL document CHEMBL1148163

experiment: Cytotoxicity against human Raji cells assessed as cell viability at 500 molar ratio; type: cell-based; conditions: read-out: Activity
endpoint-name: viability at 500 molar ratio (%)
Write the value in % as a bare number.

Query: GET /values?readout=viability at 500 molar ratio&item= C=C(CO)[C@H]1Cc2c(ccc3c2O[C@@H]2COc4cc(OC)c(OC)cc4[C@]2(O)C3=O)O1
Result: 80

Further cases:
Query: Entry under review: COc1cc2c(cc1OC)[C@@H]1C(=O)c3ccc4c(c3O[C@@H]1CO2)C[C@H](C(C)(C)O[C@@H]1O[C@H](CO)[C@@H](O)[C@H](O)[C@H]1O)O4 . Reported viability at 500 molar ratio?
Result: 80

Query: Item: COC1=CC(=O)[C@]2(C=C1OC)OC[C@H]1Oc3c(ccc4c3C=CC(C)(C)O4)C(=O)[C@H]12
Result: 80

Query: Now consider C=C(CO)[C@H]1Cc2c(ccc3c2O[C@@H]2COc4cc(OC)c(OC)cc4[C@@H]2C3=O)O1 .
Result: 80

Query: # repeat for COc1cc2c(cc1OC)[C@]1(O)C(=O)c3ccc4c(c3O[C@@H]1CO2)C=CC(C)(C)O4
Result: 60

Query: Now try COc1cc2c(cc1OC)[C@]1(O)C(=O)c3ccc4c(c3O[C@@H]1CO2)C[C@H](C(C)(C)O)O4 .
Result: 80
